pIC50: −log10 of the molar value.
Below are molecules with their pIC50 as measured on UniProt O15530.
Sequence (O15530 52-556): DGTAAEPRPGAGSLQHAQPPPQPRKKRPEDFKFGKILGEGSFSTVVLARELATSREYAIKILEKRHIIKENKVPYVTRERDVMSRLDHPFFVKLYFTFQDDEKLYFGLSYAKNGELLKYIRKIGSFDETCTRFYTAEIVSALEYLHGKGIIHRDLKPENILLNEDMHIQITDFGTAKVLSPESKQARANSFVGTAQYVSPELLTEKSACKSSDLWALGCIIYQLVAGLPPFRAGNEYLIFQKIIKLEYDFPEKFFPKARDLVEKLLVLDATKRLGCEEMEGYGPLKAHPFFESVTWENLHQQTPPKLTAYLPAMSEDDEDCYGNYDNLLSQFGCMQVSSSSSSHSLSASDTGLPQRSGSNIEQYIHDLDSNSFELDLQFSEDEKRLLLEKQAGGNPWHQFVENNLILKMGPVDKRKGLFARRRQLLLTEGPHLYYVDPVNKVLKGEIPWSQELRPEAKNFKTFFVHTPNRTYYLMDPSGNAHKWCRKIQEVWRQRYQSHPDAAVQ

Input: Report measured pIC50 on UniProt O15530; entry: COc1ccc(C#Cc2ccc3ncc4nc(C)n(-c5ccc(CCN)cc5)c4c3c2)cc1
Output: ≥ 6.30

Input: Report measured pIC50 on UniProt O15530; entry: NCCc1ccc(-n2cnc3cnc4cc(F)c(C#Cc5ccc6c(c5)OCO6)cc4c32)cc1
Output: 6.00 to 6.30

Input: Report measured pIC50 on UniProt O15530; entry: NCCc1ccc(-n2cnc3cnc4ccc(C#Cc5cccnc5)cc4c32)cc1
Output: ≥ 6.30

Input: Report measured pIC50 on UniProt O15530; entry: COc1cccc(C#Cc2ccc3ncc4nc(C)n(-c5ccc(CCN)cc5)c4c3c2)c1
Output: 6.00 to 6.30

Input: Report measured pIC50 on UniProt O15530; entry: NCCCc1ccc(-n2cnc3cnc4ccc(C#Cc5ccc6c(c5)OCO6)cc4c32)cc1
Output: ≥ 6.30

Input: Report measured pIC50 on UniProt O15530; entry: NCCCc1ccc(-n2cnc3cnc4cc(Cl)c(C#Cc5cccnc5)cc4c32)cc1
Output: 6.00 to 6.30

Input: Report measured pIC50 on UniProt O15530; entry: NCCc1ccc(-n2cnc3cnc4cc(F)c(C#Cc5cccnc5)cc4c32)cc1
Output: 6.00 to 6.30

Input: Report measured pIC50 on UniProt O15530; entry: NCCc1ccc(-n2cnc3cnc4cc(F)c(C#Cc5ccccc5)cc4c32)cc1
Output: 6.00 to 6.30

Input: Report measured pIC50 on UniProt O15530; entry: NCCCc1ccc(-n2cnc3cnc4ccc(C#Cc5ccccc5)cc4c32)cc1
Output: ≥ 6.30
